FYI, the data here is from patent US20240385190A1.

# reported absorbance; entries follow
- system: T1, human EphA4 extracellular domain-MBP-His protein (human)
- T1 construct: also called human EphA4 extracellular domain (ECD); Human EphA4 extracellular domain-MBP-His 10
- test.description: ELISA

- binder: "KPEP11_04 (antibody, V domains shown, Rabbit IgG/kappa; Used HRP-labeled as detection antibody in the sandwich ELISAs; also called anti-human EphA4 rabbit monoclonal antibody KPEP11_04; HRP-labeled KPEP11_04) VH: QEQLKESGGRLVTPGGSLTLTCTVSGIDLSSYAMSWVRQAPEKGLEWIGFINMYGTYYASWAKGRFTISRTSTTVDLKVTSLTTEDTATYFCVRGGRSPDYDIVSGDIWGPGTLVTVSS VL: YVMMTQTPSSVSEPVGGTVTIKCQASQNIYNSLAWYQQKPGQRPKLLIADASELASGVPQRFSGSGSGTQFTLTISDLECADAATYYCQSSSAGDSYVGGFGGGTEVVVKG"
  absorbance: 1.41
- binder: "KPEP11_07 (antibody, V domains shown, Rabbit IgG; also called anti-human EphA4 rabbit monoclonal antibody KPEP11_07) VH: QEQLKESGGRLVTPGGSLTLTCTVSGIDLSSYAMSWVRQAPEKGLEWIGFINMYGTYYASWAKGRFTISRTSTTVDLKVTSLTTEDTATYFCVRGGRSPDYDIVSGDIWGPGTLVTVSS VL: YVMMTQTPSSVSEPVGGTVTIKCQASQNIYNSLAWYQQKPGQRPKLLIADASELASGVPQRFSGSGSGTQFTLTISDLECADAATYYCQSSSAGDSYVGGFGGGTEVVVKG"
  absorbance: 1.42
- binder: "KPEP11_20 (antibody, V domains shown, Rabbit IgG; also called anti-human EphA4 rabbit monoclonal antibody KPEP11_20) VH: QSLEESGGRLVTPGTPLTLTCTVSGFSLNNYYMNWVRQAPGKGLEWIGIIYPDIDTTDYASWVKGRFTISKTSTTVDLKITSPTTEDTATYFCARSDIDYYTTRLDLWGQGTLVTISS VL: AQVLTQTPSPVSAAVGGTVSINCQSSPSVYNNNWLSWFQQKPGQPPKLLIYGASTLASGVPSRFKGSGSGTQFTLTISDVQCDDAATYYCAGGYDSNSDTAFGGGTELEILG"
  absorbance: 1.26
- binder: "KPEP11_12 (antibody, V domains shown, Rabbit IgG; also called anti-human EphA4 rabbit monoclonal antibody KPEP11_12) VH: QSLEESGGRLVTPGTPLTLTCTVSGFSLSSYHMSWVRQAPGKGLEWIGIIYRSGNTYYANWAKGRFTISKTSTTVDLKITSPTTEDTATYFCARESSTFYGMDLWGPGTLVTVSS VL: YVMMTQTPSSVSAAVGGTVTINCQASQSVYGNNELAWYQQKPGQRPKLLIYRASTLASGVPSRFKGSGSGTEFTLTISDLECADAATYYCLGYKSDDYTFGGGTKVEIKG"
  absorbance: 1.29
- binder: "KPEP11_09 (antibody, V domains shown, Rabbit IgG; also called anti-human EphA4 rabbit monoclonal antibody KPEP11_09) VH: QSVEESGGRLVTPGTPLTLTCTVSGFSLSSYHMSWVRQAPGKGLEWIGIIYRSGNTYSANWAKGRFTISKTSTTVDLKITSPTTEDTATYFCARESSTFYGMDLWGPGTLVTVSS VL: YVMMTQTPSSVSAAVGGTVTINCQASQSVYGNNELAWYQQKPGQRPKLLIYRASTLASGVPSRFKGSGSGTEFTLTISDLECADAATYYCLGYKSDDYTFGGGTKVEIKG"
  absorbance: 1.24
